Cited source for all entries: patent US10435399B2

# tested target: HDAC6 enzyme (Homo sapiens, UniProt Q9UBN7)
# Construct: transducing full length HDAC6 gene into Sf-9 insect cells; GST; purchased SignalChem; host or cells: Sf-9 insect cells
# Sequence (Q9UBN7 whole entry): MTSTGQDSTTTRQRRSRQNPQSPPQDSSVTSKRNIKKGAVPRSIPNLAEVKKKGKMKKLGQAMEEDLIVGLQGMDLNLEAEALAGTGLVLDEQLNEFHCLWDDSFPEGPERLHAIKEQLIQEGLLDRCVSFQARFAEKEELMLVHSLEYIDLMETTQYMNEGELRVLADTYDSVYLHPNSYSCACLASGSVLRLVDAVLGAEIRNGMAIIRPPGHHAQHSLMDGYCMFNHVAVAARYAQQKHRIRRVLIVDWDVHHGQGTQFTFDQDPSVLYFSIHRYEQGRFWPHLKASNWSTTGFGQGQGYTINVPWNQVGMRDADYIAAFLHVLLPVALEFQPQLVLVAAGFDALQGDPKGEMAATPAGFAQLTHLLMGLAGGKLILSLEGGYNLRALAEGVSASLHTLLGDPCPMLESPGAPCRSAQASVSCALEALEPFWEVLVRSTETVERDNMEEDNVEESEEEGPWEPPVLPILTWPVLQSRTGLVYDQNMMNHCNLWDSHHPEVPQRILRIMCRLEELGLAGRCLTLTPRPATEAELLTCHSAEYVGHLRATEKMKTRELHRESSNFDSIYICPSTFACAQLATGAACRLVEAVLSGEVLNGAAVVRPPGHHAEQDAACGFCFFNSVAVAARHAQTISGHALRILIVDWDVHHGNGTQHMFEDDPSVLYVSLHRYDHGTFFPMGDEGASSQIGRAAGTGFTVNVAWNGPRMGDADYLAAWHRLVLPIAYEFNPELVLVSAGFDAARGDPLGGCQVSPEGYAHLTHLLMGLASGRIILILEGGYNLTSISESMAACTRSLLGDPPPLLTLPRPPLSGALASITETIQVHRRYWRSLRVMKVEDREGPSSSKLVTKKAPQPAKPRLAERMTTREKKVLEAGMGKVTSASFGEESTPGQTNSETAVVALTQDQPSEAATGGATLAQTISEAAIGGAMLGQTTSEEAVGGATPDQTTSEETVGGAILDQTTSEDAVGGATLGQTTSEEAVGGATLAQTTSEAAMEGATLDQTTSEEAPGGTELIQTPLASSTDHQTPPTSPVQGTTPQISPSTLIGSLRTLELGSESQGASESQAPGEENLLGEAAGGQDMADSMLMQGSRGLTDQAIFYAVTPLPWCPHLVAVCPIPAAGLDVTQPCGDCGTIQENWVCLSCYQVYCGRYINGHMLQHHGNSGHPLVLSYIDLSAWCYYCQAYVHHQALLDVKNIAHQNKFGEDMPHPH
# test description: HDAC6 enzyme inhibitory activity (HDAC-Glo I/II Assay kit)
# Format: biochemical
# test context: 10 μM; wells without enzyme = 100% inhibition; read-out: HDAC6 inhibitory rate (%) (10 μM)
Measured inhibition at 10 µM, listed per entry for reference.
Supply the numeric figure in %, leaving out any unit text.

Here's what some known entries look like.
# compound, measurement name, unit text, val
data = [
    ("O=C1c2ccccc2CN1[C@@H]1CCCC[C@H]1N1Cc2ncc(-c3nnc(C(F)F)o3)cc2C1=O [Example 179]", "inhibition at 10 µM", "%", 100),
    ("Cn1cc(C(=O)NCC(F)(F)F)c(N2Cc3ccc(-c4nnc(C(F)F)o4)cc3C2=O)n1 [Example 567]", "inhibition at 10 µM", "%", 95),
    ("CC(C)(C(=O)N[C@H]1[C@H](N2Cc3ncc(-c4nnc(C(F)F)o4)cc3C2=O)CCCC1(F)F)C(F)(F)F [Example 605]", "inhibition at 10 µM", "%", 99),
    ("O=C1c2cc(-c3nnc(C(F)F)o3)ccc2CN1N1CCOCC1c1ccc(F)cc1 (stereo not shown) [Example 617]", "inhibition at 10 µM", "%", 100),
    ("O=C1c2cc(-c3nnc(C(F)F)o3)cnc2CN1[C@@H]1CCCC[C@H]1n1cccn1 (relative stereo) [Example 539]", "inhibition at 10 µM", "%", 99),
]

GET /value?item= CC(F)(F)C(=O)N1CC[C@@H](N2Cc3ccc(-c4nnc(C(F)F)o4)cc3C2=O)[C@H](c2ccc(F)cc2)C1 [Example 506] &field=inhibition at 10 µM returns 99

GET /value?item= O=C1c2cc(-c3nnc(C(F)F)o3)ccc2CN1c1cc(Cl)ccc1Br [Example 253] &field=inhibition at 10 µM returns 72
